Entries and their EC50 values follow.
# assayed system: T1, His6 peptide (antigen of the fluorescence assays) (synthetic peptide)
# T1 construct: His6; The materials name only the biotinylated His6 peptide as synthesised; it may be the same peptide as m17
# T1 chain: HHHHHH
# method notes: other fluorescence titration; Q-body de-quenching in solution with His6 peptide at varied concentrations, PBST, plate reader; EC50 from a four-parameter logistic fit
# settings: both partners purified
readout type: EC50 (µM)

binder	readout type	units of measure	test result
5-TAMRA C6 maleimide double-labeled wild-type Fab 3D5 Q-body (Fab, V domains shown, VH of antibody 3D5, as in m7; CH1 of the vector pUQ2, as in m7; VL of antibody 3D5, as the light chain of m7; CL of the vector pUQ2, as the light chain of m7; m7 labelled with two dyes; also called Wild-type TAMRA; source: E. coli SHuffle T7 Express with pGro7, purified (Talon IMAC), labelled, purified (anti-FLAG M2 beads, G-25); not shown: Cys-tag, N-terminal, kept; His6, C-terminal, kept; myc, …) VH: QVQLQQSGPEDVKPGASVKISCKASGYTFTDYYMNWVKQSPGKGLEWIGDINPNNGGTSYNQKFKGRATLTVDKSSSTAYMELRSLTSEDSSVYYCESQSGAYWGQGTTVTVSA VL: DILMTQTPSSLPVSLGDQASISCRSSQSIVHSNGNTYLEWYLQKPGQSPKLLIYKVSNRFSGVPDRFSGSGSGTDFTLKISRVEAEDLGVYYCFQGSHVPFTFGSGTKLEIK	EC50	µM	132
5-TAMRA C6 maleimide double-labeled WW Fab 3D5 Q-body (Fab, V domains shown, VH of antibody 3D5, as the VH of m7 with the stated changes; numbers count on: Kabat numbering of the heavy chain; CH1 of the vector pUQ2, as in m7; VL of antibody 3D5, as the light chain of m7; CL of the vector pUQ2, as the light chain of m7; m8 labelled with two dyes; also called WW TAMRA; source: E. coli SHuffle T7 Express with pGro7, purified (Talon IMAC), labelled, purified (anti-FLAG M2 …)) VH: QVQLQQSGPEDVKPGASVKISCKASGYTFTDWWMNWVKQSPGKGLEWIGDINPNNGGTSYNQKFKGRATLTVDKSSSTAYMELRSLTSEDSSVYYCESQSGAYWGQGTTVTVSA VL: DILMTQTPSSLPVSLGDQASISCRSSQSIVHSNGNTYLEWYLQKPGQSPKLLIYKVSNRFSGVPDRFSGSGSGTDFTLKISRVEAEDLGVYYCFQGSHVPFTFGSGTKLEIK	EC50	µM	89.5
